Each item that follows carries a reported pKi.
Assayed system: μ-receptor (Homo sapiens (Human))
Procedure text: Alternate receptor binding assay, competitive displacement of [3H]DAMGO
Condition details: alternate assay: 0.8 nM [3H]DAMGO, 5 mM MgCl2, CHO cell membrane protein, 120 min
pKi: −log10 of the molar value. Structures can show the parent of a compound that is named as a salt.

>  <Compound>
COC1(c2cccc(C(N)=O)c2)C2CCCC1CN(Cc1cnc(C)[nH]1)C2 (stereo not drawn) [Compound 149, hydrochloride]

>  <pKi>
> 9.00

$$$$
>  <Compound>
COC1(c2cccc(C(N)=O)c2)C2CCCC1CN([C@@H](C)c1cnc[nH]1)C2 (stereo partly drawn) [Compound 19, hydrochloride]

>  <pKi>
> 9.00

$$$$
>  <Compound>
COC1(c2ccnc(C(N)=O)c2)C2CCCC1CN(C1CC3CCC(C1)O3)C2 (stereo not drawn)

>  <pKi>
< 8.30

$$$$
>  <Compound>
COC1(c2cccc(C(N)=O)c2)C2CCCC1CN(C1C[C@@H]3C[C@@H]3C1)C2 (stereo partly drawn)

>  <pKi>
> 9.00

$$$$
>  <Compound>
COC1(c2cccc(C(N)=O)c2)C2CCCC1CN(CCCF)C2 (stereo not drawn) [Compound 157, hydrochloride]

>  <pKi>
> 9.00

$$$$
>  <Compound>
COC1(c2cccc(C(N)=O)c2)C2CCCC1CN(C1CN(c3ccccc3)C1)C2 (stereo not drawn)

>  <pKi>
> 9.00

$$$$
>  <Compound>
COC1(c2cccc(C(N)=O)c2)C2CCCC1CN([C@H](C)c1cnc[nH]1)C2 (stereo partly drawn) [Compound 20, hydrochloride]

>  <pKi>
8.30 to 9.00

$$$$
>  <Compound>
CCOC1(c2cccc(C(N)=O)c2F)C2CCCC1CNC2 (stereo not drawn)

>  <pKi>
< 8.30

$$$$
>  <Compound>
COC1(c2cccc(C(N)=O)c2)C2CCCC1CN(C[C@H]1C[C@@H]3C[C@@H]3C1)C2 (stereo partly drawn) [Compound 152, hydrochloride]

>  <pKi>
> 9.00

$$$$
>  <Compound>
CCOC1(c2ccc(F)c(C(N)=O)c2)C2CCCC1CNC2 (stereo not drawn)

>  <pKi>
< 8.30

$$$$
>  <Compound>
COC1(c2ccnc(C(N)=O)c2)C2CCCC1CN(CC1(F)CCOCC1)C2 (stereo not drawn)

>  <pKi>
< 8.30

$$$$
>  <Compound>
NC(=O)c1cccc(C2(OCCF)C3CCCC2CNC3)c1 (stereo not drawn)

>  <pKi>
< 8.30

$$$$
>  <Compound>
CCOC1(c2cc(C(N)=O)ccc2Cl)C2CCCC1CNC2 (stereo not drawn)

>  <pKi>
< 8.30

$$$$
>  <Compound>
COC1(c2ccnc(C(N)=O)c2)C2CCCC1CN(C1CCC(F)(F)CC1)C2 (stereo not drawn)

>  <pKi>
8.30 to 9.00

$$$$
>  <Compound>
COC1(c2cccc(C(N)=O)c2)C2CCCC1CN(C1CCC(F)(F)CC1)C2 (stereo not drawn)

>  <pKi>
> 9.00

$$$$
>  <Compound>
COC1(c2cccc(C(N)=O)c2)C2CCCC1CN([C@H]1C[C@@H]3[C@H](C1)C3(F)F)C2 (stereo partly drawn)

>  <pKi>
> 9.00

$$$$
>  <Compound>
COC1(c2cccc(C(N)=O)c2)C2CCCC1CN(C1CC3CCC(C1)O3)C2 (single isomer, unassigned) [Compound 16, hydrochloride]

>  <pKi>
> 9.00

$$$$
>  <Compound>
COC1(c2ccnc(C(N)=O)c2)C2CCCC1CN([C@H]1C[C@@H]3[C@H](C1)C3(F)F)C2 (stereo partly drawn)

>  <pKi>
> 9.00

$$$$
>  <Compound>
NC(=O)c1cccc(C2(OCC(F)F)C3CCCC2CNC3)c1 (stereo not drawn)

>  <pKi>
< 8.30

$$$$
>  <Compound>
COC1(c2cccc(C(N)=O)c2)C2CCCC1CN(C1CC3CCC(C1)O3)C2 (stereo not drawn) [Compound 203]

>  <pKi>
8.30 to 9.00

$$$$
>  <Compound>
CCOC1(c2cccc(C(N)=O)c2)C2CCCC1CNC2.Cl (stereo not drawn)

>  <pKi>
8.30 to 9.00

$$$$
